assay: Inhibition of Cryptosporidium parvum Iowa II ser/Thr protein kinase FIKK
readout kind: IC50
Answer by giving the amount and then stating its unit.

Any idea what its IC50 is? The molecule is Nc1nc(-c2cccc(Cl)c2)c(-c2ccc3ncccc3n2)s1 [GW780159X]
3 nM

###

assay: Permeability in human Caco2 cells; type: ADME, cell-based; settings: Caco-2, read-out: permeability
readout kind: Papp

{"compound smiles": "Nc1nc(-c2cccc(F)c2)c(-c2ccc3ncccc3n2)s1", "measured value": "16 ×10⁻⁶ cm/s"}

Here's the next entry for you.
Any idea what its Papp is? The compound is `Cc1cccc(-c2nc(N)sc2-c2ccc3ncccc3n2)c1`
11 ×10⁻⁶ cm/s

###

biological target: Calcium/calmodulin-dependent protein kinase with a kinase domain and 2 calmodulin-like EF hands (Cryptosporidium parvum (strain Iowa II), UniProt Q5CZ29); experiment: Inhibition of Cryptosporidium parvum Iowa II calcium/calmodulin-dependent protein kinase with a kinase domain and 2 calmodulin-like EF hands
Sequence (Q5CZ29 whole entry, the tested form may be a part): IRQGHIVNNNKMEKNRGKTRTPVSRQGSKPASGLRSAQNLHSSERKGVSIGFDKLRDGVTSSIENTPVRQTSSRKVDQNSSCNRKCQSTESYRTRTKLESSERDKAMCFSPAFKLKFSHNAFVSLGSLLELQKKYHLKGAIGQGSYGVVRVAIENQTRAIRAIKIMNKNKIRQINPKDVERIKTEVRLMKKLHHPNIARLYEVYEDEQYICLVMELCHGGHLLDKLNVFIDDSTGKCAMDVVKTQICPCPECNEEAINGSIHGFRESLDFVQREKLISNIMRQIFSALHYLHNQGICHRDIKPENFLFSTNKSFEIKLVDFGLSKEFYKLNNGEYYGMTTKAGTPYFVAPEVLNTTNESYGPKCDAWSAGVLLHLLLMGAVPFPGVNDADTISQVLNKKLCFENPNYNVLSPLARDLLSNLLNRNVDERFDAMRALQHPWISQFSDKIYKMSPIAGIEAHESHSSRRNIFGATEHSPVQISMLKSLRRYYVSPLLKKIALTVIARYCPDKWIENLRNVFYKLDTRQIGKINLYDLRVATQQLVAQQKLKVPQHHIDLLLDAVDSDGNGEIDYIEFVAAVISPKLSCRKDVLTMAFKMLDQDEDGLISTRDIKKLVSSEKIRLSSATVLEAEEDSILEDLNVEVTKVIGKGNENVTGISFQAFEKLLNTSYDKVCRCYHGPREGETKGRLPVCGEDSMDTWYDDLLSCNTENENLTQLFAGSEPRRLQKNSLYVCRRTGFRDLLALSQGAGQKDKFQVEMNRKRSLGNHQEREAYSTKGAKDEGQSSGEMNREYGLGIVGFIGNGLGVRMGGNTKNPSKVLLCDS
pIC50: −log10 of the molar value.
readout kind: pIC50

Any idea what its pIC50 is? The compound is Nc1nc(-c2cccc(Cl)c2)c(-c2ccc3ncccc3n2)s1 [GW780159X]
< 5.00

###

assay: Inhibition of Cryptosporidium parvum Iowa II cyclin-dependent kinase 3
pIC50: −log10 of the molar value.
readout kind: pIC50

Any idea what its pIC50 is? The molecule is Nc1nc(-c2cccc(Cl)c2)c(-c2ccc3ncccc3n2)s1 [GW780159X]
< 5.00

###

target: Calcium-dependent protein kinase 2 (Cryptosporidium parvum, UniProt Q6S4V9); assay: Inhibition of Cryptosporidium parvum calcium-dependent protein kinase 2
Sequence (Q6S4V9 whole entry): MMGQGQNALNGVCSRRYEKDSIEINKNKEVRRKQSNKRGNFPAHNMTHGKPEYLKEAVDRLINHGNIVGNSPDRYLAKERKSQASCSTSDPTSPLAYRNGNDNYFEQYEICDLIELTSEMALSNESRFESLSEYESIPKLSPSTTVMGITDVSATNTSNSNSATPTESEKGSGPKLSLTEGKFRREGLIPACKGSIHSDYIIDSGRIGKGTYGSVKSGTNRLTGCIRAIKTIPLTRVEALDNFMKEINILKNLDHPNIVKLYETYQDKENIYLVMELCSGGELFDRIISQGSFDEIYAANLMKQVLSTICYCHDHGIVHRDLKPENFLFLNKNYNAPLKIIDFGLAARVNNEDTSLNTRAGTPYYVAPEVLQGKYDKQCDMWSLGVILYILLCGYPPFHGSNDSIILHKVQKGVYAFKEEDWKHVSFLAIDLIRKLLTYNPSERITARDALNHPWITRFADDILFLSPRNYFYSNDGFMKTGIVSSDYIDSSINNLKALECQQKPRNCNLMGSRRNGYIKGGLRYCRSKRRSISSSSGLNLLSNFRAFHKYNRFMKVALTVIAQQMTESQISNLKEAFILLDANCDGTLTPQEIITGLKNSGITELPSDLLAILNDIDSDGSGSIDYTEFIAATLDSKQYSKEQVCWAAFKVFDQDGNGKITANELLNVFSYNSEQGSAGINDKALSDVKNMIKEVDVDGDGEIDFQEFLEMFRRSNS
readout kind: IC50

Any idea what its IC50 is? The compound is Nc1nc(-c2cccc(Cl)c2)c(-c2ccc3ncccc3n2)s1 [GW780159X]
> 10 µM

###

target: Mitogen-activated protein kinase (Cryptosporidium parvum (strain Iowa II), UniProt A3FQ79); assay: Inhibition of Cryptosporidium parvum Iowa II mitogen-activated protein kinase
Sequence (A3FQ79 whole entry): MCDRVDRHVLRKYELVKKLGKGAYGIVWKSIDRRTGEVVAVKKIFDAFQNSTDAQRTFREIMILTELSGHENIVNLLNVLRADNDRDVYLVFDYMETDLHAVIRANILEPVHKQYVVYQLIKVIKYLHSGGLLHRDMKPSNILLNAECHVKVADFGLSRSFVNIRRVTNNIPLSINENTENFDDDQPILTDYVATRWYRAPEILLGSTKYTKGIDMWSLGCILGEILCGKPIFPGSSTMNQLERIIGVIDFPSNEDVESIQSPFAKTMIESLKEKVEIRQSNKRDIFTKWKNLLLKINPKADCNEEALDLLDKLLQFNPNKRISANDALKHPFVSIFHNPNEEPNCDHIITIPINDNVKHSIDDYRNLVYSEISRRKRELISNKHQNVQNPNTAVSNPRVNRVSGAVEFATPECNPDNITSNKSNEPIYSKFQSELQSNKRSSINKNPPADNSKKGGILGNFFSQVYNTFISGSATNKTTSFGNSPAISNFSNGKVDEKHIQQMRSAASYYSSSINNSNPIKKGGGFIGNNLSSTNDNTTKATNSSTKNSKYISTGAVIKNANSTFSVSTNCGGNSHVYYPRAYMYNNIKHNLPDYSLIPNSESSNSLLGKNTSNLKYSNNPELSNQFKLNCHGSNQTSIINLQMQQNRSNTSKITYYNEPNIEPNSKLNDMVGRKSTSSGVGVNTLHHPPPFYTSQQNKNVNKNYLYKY
pIC50: −log10 of the molar value.
readout kind: pIC50

Missing value: pIC50, Mitogen-activated protein kinase (Cryptosporidium parvum (strain Iowa II), UniProt A3FQ79), entry Nc1nc(-c2cccc(Cl)c2)c(-c2ccc3ncccc3n2)s1 [GW780159X] . Fill in?
< 5.00

###

experiment: Efflux ratio of permeability in human Caco2 cells; assay type: ADME, cell-based; conditions: Caco-2
readout kind: efflux ratio

{"compound smiles": "Cc1cccc(-c2nc(N)sc2-c2ccc3ncccc3n2)c1", "efflux ratio": "< 1"}

Any idea what its efflux ratio is? The compound is `Nc1nc(-c2cccc(F)c2)c(-c2ccc3ncccc3n2)s1`
< 1

###

Provide the reported log10(IC50) of each item.
assay: Inhibition of recombinant Cryptosporidium parvum FIKK using RRRAPSFYRK peptide as substrate by NADH coupled LDH-PK ATPase assay
Could you please treat all values as log10 of IC50 in nM?

Below is a list of compounds. For each, state its recorded log10(IC50).
1. Nc1nc(-c2ccc(F)c(Cl)c2)c(-c2ccc3ncccc3n2)s1
2. Cc1ccc(-c2nc(N)sc2-c2ccc3ncccc3n2)cc1C
3. CNc1nc(-c2cccc(Cl)c2)c(-c2ccc3ncccc3n2)s1
4. N#Cc1cccc(-c2nc(N)sc2-c2ccc3ncccc3n2)c1
5. Nc1nc(-c2ccccc2)c(-c2ccc3ncccc3n2)s1
6. Nc1nc(-c2ccc(Cl)cc2)c(-c2ccc3ncccc3n2)s1

[1.40, 3.46, 3.56, 3.61, 1.62, 3.51]

Below is a list of compounds. For each, state its recorded log10(IC50).
1. Cc1cccc(-c2nc(N)sc2-c2ccc3ncccc3n2)c1
2. Cc1cc(-c2nc(N)sc2-c2ccc3ncccc3n2)ccc1F
3. Nc1nc(-c2ccc(F)cc2)c(-c2ccc3ncccc3n2)s1 [GW785804X]
4. COc1cccc(-c2nc(N)sc2-c2ccc3ncccc3n2)c1
5. Nc1nc(-c2cccc(F)c2)c(-c2ccc3ncccc3n2)s1
6. Nc1nc(-c2cccc(C(F)(F)F)c2)c(-c2ccc3ncccc3n2)s1
7. Nc1nc(-c2cccc(Cl)c2)c(-c2ccc3ncccc3n2)s1 [GW780159X]

1: -0.70; 2: 2.15; 3: 2.34; 4: 2.26; 5: 2.34; 6: 3.08; 7: 0.48

Any idea what its log10(IC50) is? The compound is `Nc1nc(-c2ccc(Cl)c(Cl)c2)c(-c2ccc3ncccc3n2)s1`
2.88

###

experiment: Inhibition of Cryptosporidium parvum Iowa II serine/threonine-protein kinase Nek2
readout kind: IC50

Any idea what its IC50 is? The compound is Nc1nc(-c2cccc(Cl)c2)c(-c2ccc3ncccc3n2)s1 [GW780159X]
> 10 µM

###

system: Cryptosporidium parvum; experiment: Inhibition of recombinant Cryptosporidium parvum FIKK assessed as change in melting temperature at 50 uM by differential static light scattering method
Provide the reported ΔTm of each item.
Give bare numbers, in °C.

Take a look at these entries with their results.
{"molecule": "COc1ccc(-c2nc(N)sc2-c2ccc3ncccc3n2)cc1", "readout kind": "ΔTm", "units symbol": "°C", "measured value": 0.4}
{"molecule": "Nc1nc(-c2cccc(Cl)c2)c(-c2ccc3ncccc3n2)s1 [GW780159X]", "readout kind": "ΔTm", "units symbol": "°C", "measured value": 5.1}
{"molecule": "CC(C)c1cccc(-c2nc(N)sc2-c2ccc3ncccc3n2)c1", "readout kind": "ΔTm", "units symbol": "°C", "measured value": 1}

Below is a list of molecules. For each, state its recorded ΔTm.
1. Cc1cccc(-c2nc(N)sc2-c2ccc3ncccc3n2)c1
2. Nc1nc(-c2cccc(F)c2)c(-c2ccc3ncccc3n2)s1
3. Nc1nc(-c2ccc(F)c(Cl)c2)c(-c2ccc3ncccc3n2)s1
4. Nc1nc(-c2ccc(F)cc2)c(-c2ccc3ncccc3n2)s1 [GW785804X]
5. Cc1ccc(-c2nc(N)sc2-c2ccc3ncccc3n2)cc1C
6. Nc1nc(-c2ccccc2)c(-c2ccc3ncccc3n2)s1

1: 5.2; 2: 4.9; 3: 3.6; 4: 4.7; 5: 0.82; 6: 4.2

###

test: Inhibition of Cryptosporidium parvum Iowa II calcium/calmodulin-dependent protein kinase
readout kind: IC50

Any idea what its IC50 is? The molecule is Nc1nc(-c2cccc(Cl)c2)c(-c2ccc3ncccc3n2)s1 [GW780159X]
> 10 µM

###

assay: Ratio of EC50 for antiparasitic activity against Cryptosporidium parvum Iowa oocysts infected in human HCT8 cells to IC50 for recombinant Cryptosporidium parvum FIKK; format: functional, cell-based
readout kind: Ratio

Below is a list of compounds. For each, state its recorded Ratio.
1. Cc1ccc(-c2nc(N)sc2-c2ccc3ncccc3n2)cc1C
2. Cc1cccc(-c2nc(N)sc2-c2ccc3ncccc3n2)c1
3. Nc1nc(-c2cccc(F)c2)c(-c2ccc3ncccc3n2)s1
4. Nc1nc(-c2cccc(Cl)c2)c(-c2ccc3ncccc3n2)s1 [GW780159X]

[1.3, 12800, 6, 1840]

###

experiment: Inhibition of Cryptosporidium parvum CDPK1 using PLARTLSVAGLPGKK peptide as substrate by NADH coupled LDH-PK ATPase assay
pIC50: −log10 of the molar value.
Binary classification by pIC50, with 6 as an inclusive lower bound for criterion met; all other cases are criterion not met.

Entry `CC(=O)Nc1nc(-c2cccc(Cl)c2)c(-c2ccc3ncccc3n2)s1` : is its pIC50 no less than 6?
criterion met

Entry `Cc1ccnc2ccc(-c3sc(N)nc3-c3ccc(F)c(Cl)c3)nc12` : is its pIC50 no less than 6?
criterion met

Entry Nc1nc(-c2cccc(Cl)c2)c(-c2ccc3ncccc3n2)s1 [GW780159X] : is its pIC50 no less than 6?
criterion met

Entry `CCc1cccc(-c2nc(N)sc2-c2ccc3ncccc3n2)c1` : is its pIC50 no less than 6?
criterion met

Entry `Cc1cc(-c2nc(N)sc2-c2ccc3ncccc3n2)ccc1F` : is its pIC50 no less than 6?
criterion met

Entry `Nc1nc(-c2ccc(Cl)c(Cl)c2)c(-c2ccc3ncccc3n2)s1` : is its pIC50 no less than 6?
criterion not met

Entry `Cc1ccc(-c2nc(N)sc2-c2ccc3ncccc3n2)cc1C` : is its pIC50 no less than 6?
criterion met

Entry Nc1nc(-c2ccc(F)cc2)c(-c2ccc3ncccc3n2)s1 [GW785804X] : is its pIC50 no less than 6?
criterion met

Entry `CC(C)c1cccc(-c2nc(N)sc2-c2ccc3ncccc3n2)c1` : is its pIC50 no less than 6?
criterion not met

Entry `Cc1cccc(-c2nc(N)sc2-c2ccc3ncccc3n2)c1` : is its pIC50 no less than 6?
criterion met

Entry `COc1ccc(-c2nc(N)sc2-c2ccc3ncccc3n2)cc1` : is its pIC50 no less than 6?
criterion not met

Entry `Nc1nc(-c2ccc(F)c(Cl)c2)c(-c2ccc3ncccc3n2)s1` : is its pIC50 no less than 6?
criterion met

Entry `Nc1nc(-c2ccccc2)c(-c2ccc3ncccc3n2)s1` : is its pIC50 no less than 6?
criterion met

Entry `Nc1nc(-c2cc(Cl)cc(Cl)c2)c(-c2ccc3ncccc3n2)s1` : is its pIC50 no less than 6?
criterion not met

Entry `Nc1nc(-c2cccc(F)c2)c(-c2ccc3ncccc3n2)s1` : is its pIC50 no less than 6?
criterion met

Entry `COc1cccc(-c2nc(N)sc2-c2ccc3ncccc3n2)c1` : is its pIC50 no less than 6?
criterion met

Entry `Nc1nc(-c2cccc(C(F)(F)F)c2)c(-c2ccc3ncccc3n2)s1` : is its pIC50 no less than 6?
criterion met

Entry `Nc1nc(-c2ccc(Cl)cc2)c(-c2ccc3ncccc3n2)s1` : is its pIC50 no less than 6?
criterion met
